target: human SOS1 (loading of human K-Ras^G12C-GDP with fluorescent GTP-analog) (Homo sapiens); experiment: Biochemical assay 3: K-Ras^G12C activation assay by hSOS1 (HTRF); settings: E-notation values; unit inferred; read-out: Assay 3 (KRAS-Activation) IC50
pIC50: −log10 of the molar value.
OBSERVATION TYPE: pIC50

Kindly note the recorded pIC50 for COc1cc2nc(C)nc(NC(C)c3ccc(-c4ccc(Cl)cc4CNC(=O)OC(C)(C)C)s3)c2cc1OC (stereo not drawn) [Example 449] , which is < 4.70

Kindly note the recorded pIC50 for Cc1nc(N[C@H](C)c2cccc(Cl)c2)c2ccc(Br)cc2n1 [Example 451] , which is < 4.70

// switching to the query compound
Kindly note the recorded pIC50 for COc1cc2nc(C)nc(NC(C)c3ccc(-c4ccc(CNC(=O)OC(C)(C)C)s4)s3)c2cc1OC (stereo not drawn) [Example 447] , which is < 4.70

* * *

Reported pIC50 values for a set of compounds
target: human SOS1 (nucleotide exchange of K-Ras^G12C) (Homo sapiens, UniProt Q07889); experiment: Biochemical assay 2: K-Ras^G12C activation assay by hSOS1 at high GTP concentration (HTRF); conditions: high GTP; read-out: Assay 2 (KRAS-Activation by SOS high GTP) activity expressed as IC50
Scale explanation: pIC50 corresponds to minus log10 of a concentration expressed in moles per litre.

Some solved entries appear below for comparison.
Kindly note the recorded pIC50 for COc1cc2nc(C)nc(NC(C)c3cccc4sccc34)c2cc1OC (centres unmarked) , which is 7.06

Kindly note the recorded pIC50 for COc1cc2nc(C)nc(N[C@H](C)c3cccc(-c4ccc(C(C)(C)C#N)cc4)c3)c2cc1OC , which is 5.27

Kindly note the recorded pIC50 for COc1cc2nc(C)nc(N[C@H](C)c3cccc(C4=CCCC4)c3)c2cc1OC , which is 5.87

Kindly note the recorded pIC50 for COc1cc2nc(C)nc(NC(C)c3ccc(-c4ccc(C(N)=O)cc4)s3)c2cc1OC (centres unmarked) , which is 5.82

Next:
Kindly note the recorded pIC50 for CNCc1ccccc1-c1cccc([C@@H](C)Nc2nc(C)nc3cc(OC)c(OC)cc23)c1 , which is 6.82

* * *

target: human SOS1 (loading of human K-Ras^G12C-GDP with fluorescent GTP-analog) (Homo sapiens, UniProt Q07889); assay: Biochemical assay 3: K-Ras^G12C activation assay by hSOS1 (HTRF); details: no GTP; read-out: Assay 3 (KRAS-Activation by SOS no GTP) activity expressed as IC50
Reported IC50 values for a set of compounds
Field: numeric (nM). Do not append units.

Some solved entries appear below for comparison.
Kindly note the recorded IC50 for COc1cc2nc(C)nc(N[C@@H](C)c3ccc(-c4cccc5cnccc45)s3)c2cc1OC (racemic) , which is 1100

Kindly note the recorded IC50 for COc1cc2nc(C)nc(NC(C)c3ccc4c(c3)CCCC4)c2cc1OC (stereo not shown) , which is 1500

Kindly note the recorded IC50 for COc1cc2nc(C)nc(NC(C)c3ccc(-c4ccccc4CCO)s3)c2cc1OC (stereo not shown) , which is 820

Kindly note the recorded IC50 for COc1cc2nc(C)nc(N[C@H](C)c3cccc(-c4cccc(CNS(C)(=O)=O)c4)c3)c2cc1OC , which is 680

Kindly note the recorded IC50 for CC[C@@H](O)c1ccccc1-c1ccc(C(C)Nc2nc(C)nc3cc(OC)c(OC)cc23)s1 (stereo partly shown) , which is 740

Kindly note the recorded IC50 for COc1cc2nc(C)nc(N[C@@H](C)c3ccc(-c4cccc5[nH]ccc45)s3)c2cc1OC (racemic) , which is 7180

Kindly note the recorded IC50 for COc1cc2nc(C)nc(N[C@H](C)c3cccc(C4CC4)c3)c2cc1OC , which is 640

Kindly note the recorded IC50 for COc1cc2nc(C)nc(NC(C)c3ccc(-c4ccccc4CN4CCCC4)s3)c2cc1OC (stereo not shown) , which is 122

Next:
Kindly note the recorded IC50 for COc1cc2nc(C)nc(NC(C)c3ccc4c(c3)OCO4)c2cc1OC (stereo not shown) , which is 8620

Kindly note the recorded IC50 for CCCCNCc1ccccc1-c1ccc(C(C)Nc2nc(C)nc3cc(OC)c(OC)cc23)s1 (stereo not shown) , which is 136

* * *

target: K-Ras^G12C : hSOS1 interaction (Homo sapiens, UniProt Q07889); assay: Biochemical assay 1: K-Ras^G12C interaction assay with hSOS1 (HTRF); format: binding; conditions: read-out: Assay 1 (KRAS-SOS Interaction) activity expressed as IC50
OBSERVATION TYPE: pIC50
Scale explanation: pIC50 corresponds to minus log10 of a concentration expressed in moles per litre.

Some solved entries appear below for comparison.
Query COc1cc2nc(C)nc(NC(C)c3cccs3)c2cc1OC (stereo not shown) [Example 347] on K-Ras^G12C : hSOS1 interaction (Homo sapiens, UniProt Q07889); pIC50 returned: 4.81

Query COc1cc2nc(C)nc(NC(C)c3cccc4cccnc34)c2cc1OC (single isomer, unassigned; enantiomer 1) [Example 230] on K-Ras^G12C : hSOS1 interaction (Homo sapiens, UniProt Q07889); pIC50 returned: 5.31

Query COc1cc2nc(C)nc(NC(C)c3cccc(OC)c3OC)c2cc1OC (stereo not shown) [Example 21] on K-Ras^G12C : hSOS1 interaction (Homo sapiens, UniProt Q07889); pIC50 returned: 5.50

Query COc1cc2nc(C)nc(NC(C)c3ccc4c(c3)CCO4)c2cc1OC (stereo not shown) [Example 24] on K-Ras^G12C : hSOS1 interaction (Homo sapiens, UniProt Q07889); pIC50 returned: 6.15

Query COc1cc2nc(C)nc(N[C@H](C)c3cccc(-n4cccn4)c3)c2cc1OC [Example 341] on K-Ras^G12C : hSOS1 interaction (Homo sapiens, UniProt Q07889); pIC50 returned: 5.55

Next:
Query COc1cc2nc(C)nc(N[C@H](C)c3cccc(-c4ccc(C(=O)N(C)C)cc4)c3)c2cc1OC [Example 115] on K-Ras^G12C : hSOS1 interaction (Homo sapiens, UniProt Q07889); pIC50 returned: 6.06

Query COc1cc2nc(C)nc(NC(C)c3ccc(-c4ccccc4CN4CCC(F)(F)C4)s3)c2cc1OC (stereo not shown) [Example 223] on K-Ras^G12C : hSOS1 interaction (Homo sapiens, UniProt Q07889); pIC50 returned: 5.68

Query COc1cc(F)cc(-c2cccc([C@@H](C)Nc3nc(C)nc4cc(OC)c(OC)cc34)c2)c1 [Example 65] on K-Ras^G12C : hSOS1 interaction (Homo sapiens, UniProt Q07889); pIC50 returned: 5.24

Query COc1cc2nc(C)nc(N[C@H](C)c3cccc(-c4ccncc4C)c3)c2cc1OC [Example 108] on K-Ras^G12C : hSOS1 interaction (Homo sapiens, UniProt Q07889); pIC50 returned: 6.09

Query COc1cc2nc(C)nc(N[C@@H](C)c3ccc(/C=C/c4ccccc4)s3)c2cc1OC (racemic) [Example 175] on K-Ras^G12C : hSOS1 interaction (Homo sapiens, UniProt Q07889); pIC50 returned: 4.75

Query COc1cc2nc(C)nc(NC(C)c3csc(-c4cnn(CCO)c4)c3)c2cc1OC (stereo not shown) [Example 251] on K-Ras^G12C : hSOS1 interaction (Homo sapiens, UniProt Q07889); pIC50 returned: 5.34

* * *

target: K-Ras^G12C : hSOS1 interaction (Homo sapiens, UniProt Q07889); test: Biochemical assay 1: K-Ras^G12C interaction assay with hSOS1 (HTRF); type: binding; conditions: read-out: Assay 1 (KRAS-SOS Interaction) activity expressed as IC50
pIC50: −log10 of the molar value.
Decide by pIC50: equal to or exceeding 6 means class 1, less means class 0.

Examples with answers:
Prompt line: Evaluate COc1cc2nc(C)nc(NC(C)c3ccc(-c4ccccc4CN)s3)c2cc1OC (stereo not drawn) : pIC50 at minimum 6?
Response line: class 1

Prompt line: Evaluate COc1cc2nc(C)nc(NC(C)c3ccc(-c4ccccc4CN4CC(F)C4)s3)c2cc1OC (stereo not drawn) : pIC50 at minimum 6?
Response line: class 1

Prompt line: Evaluate COc1cc2nc(C)nc(NC(C)c3ccc(-c4ccccc4CN4CCC(C(N)=O)CC4)s3)c2cc1OC (stereo not drawn) : pIC50 at minimum 6?
Response line: class 1

Prompt line: Evaluate COc1cc2nc(C)nc(NC(C)c3ccc(-c4ccccc4CNCCO)s3)c2cc1OC (stereo not drawn) : pIC50 at minimum 6?
Response line: class 1

Prompt line: Evaluate COc1cc2nc(C)nc(NC(C)c3ccc(-c4ccc(F)cc4CNC(C)=O)s3)c2cc1OC (stereo not drawn) : pIC50 at minimum 6?
Response line: class 1

Prompt line: Evaluate COc1ncc(-c2ccc([C@H](C)Nc3nc(C)nc4cc(OC)c(OC)cc34)s2)cn1 (racemic) : pIC50 at minimum 6?
Response line: class 0

Prompt line: Evaluate COc1cc2nc(C)nc(N[C@H](C)c3cccc(-c4ccc(C)cc4C)c3)c2cc1OC : pIC50 at minimum 6?
Response line: class 0

Prompt line: Evaluate COc1cc2nc(C)nc(NC(C)c3ccc(-c4ccccc4CN4CC[C@H]4CO)s3)c2cc1OC (stereo partly drawn) : pIC50 at minimum 6?
Response line: class 1

Prompt line: Evaluate Cc1nc(N[C@H](C)c2ccccc2)c2cc(Br)ccc2n1 : pIC50 at minimum 6?
Response line: class 0

Prompt line: Evaluate COc1cc2nc(C)nc(N[C@H](C)c3ccc(-c4ccccc4)cc3)c2cc1OC : pIC50 at minimum 6?
Response line: class 0

Next:
Prompt line: Evaluate COc1cc2nc(C)nc(NC(C)c3ccc(-c4ccc(F)cc4CN)s3)c2cc1OC (stereo not drawn) : pIC50 at minimum 6?
Response line: class 1

Prompt line: Evaluate COc1cc2nc(C)nc(N[C@H](C)c3cccc(-c4cn[nH]c4)c3)c2cc1OC(C)C : pIC50 at minimum 6?
Response line: class 1

Prompt line: Evaluate CCN(CC)Cc1ccccc1-c1ccc(C(C)Nc2nc(C)nc3cc(OC)c(OC)cc23)s1 (stereo not drawn) : pIC50 at minimum 6?
Response line: class 1
